Sourced from ChEMBL document CHEMBL4689842

Test system: Fibroblast
Experiment: Incucyte cell viability with human fibroblast; note: filed as whole numbers so only -1 and 0 and 1 occur
Type: toxicity, cell-based
Settings: 24 h, 10 µM, compound concentration 10 uM, replicate number 1, timepoint 24 hours
observed.property: Growth Rate

- compound: "Cc1c(OCc2cccc(-c3ccc(C(=O)O)cc3)c2)cc2c(c1C)C(=O)C(C1CCCC1)C2 (configuration not stated)"
  observed.result: 0
- compound: "O=C(Nc1cnc(Oc2ccc(F)cc2)nc1)N1CCc2ncccc2[C@@H]1c1ccc(F)cc1"
  observed.result: 1
- compound: "CN([C@@H]1CCc2c(CC(=O)O)c3ccccc3n2C1)S(=O)(=O)c1ccc(F)cc1"
  observed.result: 0
- compound: "Cc1nc(C(=O)N2CCC[C@H]2Cc2nnc(-c3ccccc3)o2)c(-c2ccccc2F)s1"
  observed.result: 0
- compound: "CCCCN1CCC(COC(=O)c2cc(Cl)c(N)c3c2OCCO3)CC1.Cl"
  observed.result: 1
- compound: "COc1cc(-c2cn([C@H]3CCc4c(F)cccc4N(CC(F)(F)F)C3=O)nn2)ccc1-n1cnc(C)c1"
  observed.result: 1
- compound: "CC(C)(O)CNc1ncc(-c2ccnc(Nc3ccnc(Cl)c3)n2)c(CC2CC2)n1"
  observed.result: 0
- compound: "CC(=O)OCC(=O)[C@@]1(O)CC[C@H]2[C@@H]3CCC4=CC(=O)CC[C@]4(C)[C@@]3(F)[C@@H](O)C[C@@]21C [FLUDROCORTISONE ACETATE]"
  observed.result: 1
- compound: "Cc1[nH]c(/C=C2\\C(=O)Nc3ccc(S(=O)(=O)N(C)c4cccc(Cl)c4)cc32)c(C)c1C(=O)N1CCN(C)CC1"
  observed.result: 1
- compound: "C[C@@H](c1cccc(CN)c1)n1cc(Cl)cc(C(N)=O)c1=N.Cl"
  observed.result: 1
- compound: "NC(=O)Nc1cc(-c2cccc(F)c2)sc1C(=O)N[C@H]1CCCNC1"
  observed.result: 0
- compound: "O=C1NCN(c2ccccc2)C12CCN(CCCOc1ccc(F)cc1)CC2 [SPIRAMIDE]"
  observed.result: 0
- compound: "O=C(NCc1ncc(C(F)(F)F)cc1Cl)c1ccc2c(c1)C1(CCS(=O)(=O)CC1)[C@H](C1CC1)N2S(=O)(=O)c1ccc(F)cc1"
  observed.result: 1
- compound: "CCc1cc(C(C)=O)c(O)cc1OCCCCCC(C)(C)c1nn[nH]n1"
  observed.result: 0
- compound: "CC[C@@H]1[C@H](F)C(=O)N[C@@H]1COc1nccc2cc(C(N)=O)c(OC)cc12"
  observed.result: 0
- compound: "Cc1sc2c(c1C)C(c1ccc(Cl)cc1)=N[C@@H](CC(=O)OC(C)(C)C)c1nnc(C)n1-2"
  observed.result: 0
- compound: "COc1ccc2cc(OCC3(C(=O)O)CN(C(=O)c4ccc(F)cc4)C3)ccc2c1"
  observed.result: 0

###

Tested on: HEK-293T
Assay: Multiplex assay against HEK293T
Assay type: toxicity, cell-based
Settings: human, 12 h, 1 µM, compound concentration 1 uM, replicate 2
The reader will find reported Population Hoechst High Intensity Objects (%) values listed item by item below.
observed.property: Population Hoechst High Intensity Objects (%)

- structure.notation: "CNc1nc(NCc2ccc(NS(C)(=O)=O)cc2Cl)cc(-c2ccccn2)n1"
  observed.result: "2%"
- structure.notation: "CCN(CC)CCCCNc1ncc2cc(-c3cc(OC)cc(OC)c3)c(NC(=O)NC(C)(C)C)nc2n1"
  observed.result: "80%"
- structure.notation: "Cc1c(-c2ccc(O)cc2)n(Cc2ccc(OCCN3CCCCCC3)cc2)c2ccc(O)cc12"
  observed.result: "6%"
- structure.notation: "C=CC(=O)Nc1cccc(C(=O)Nc2ccc(Nc3cc(-c4[nH]c(SC)nc4C)ccn3)cc2)c1"
  observed.result: "5%"
